The measurements presented in this section are drawn from the Immune Epitope Database (IEDB).

Molecular target: HLA-B*51:01
Test: IEDB peptide-MHC binding, purified MHC/competitive/fluorescence; bounds were set here for any values at or beyond the usual limits of such assays
Conditions: source organism: Pan troglodytes
pIC50: −log10 of the molar value.
parameter: pIC50

polymer.sequence	test.target	reported
RPPYSSYGY	HLA-B*51:01	≤ 4.70

----------
Target: HLA-A*31:01
Experiment: IEDB peptide-MHC binding, purified MHC/direct/fluorescence; filed as Kd, often an IC50 or EC50 that approximates it; bounds were set here for any values at or beyond the usual limits of such assays
Details: source organism: Camelpox virus M-96

polymer.sequence	Kd
ALYSYASAK	106 nM

----------
Target: HLA-B*27:03
Assay: IEDB peptide-MHC binding, purified MHC/competitive/fluorescence; filed as Kd, often an IC50 or EC50 that approximates it; bounds were set here for any values at or beyond the usual limits of such assays
Conditions: source organism: Vibrio parahaemolyticus AQ3810
pKd: −log10 of the molar value.
parameter: pKd

polymer.sequence	parameter	reported
KVGYFQHGA	pKd	≤ 4.70

----------
Biological target: HLA-B*46:01
Test: IEDB peptide-MHC binding, purified MHC/competitive/fluorescence; filed as Kd, often an IC50 or EC50 that approximates it; bounds were set here for any values at or beyond the usual limits of such assays
Conditions: source organism: Vibrio parahaemolyticus AQ3810
pKd: −log10 of the molar value.

polymer.sequence	test.target	pKd
KVGYFQHGA	HLA-B*46:01	≤ 4.70

----------
Molecular target: HLA-A*69:01
Assay: IEDB peptide-MHC binding, purified MHC/direct/fluorescence; filed as Kd, often an IC50 or EC50 that approximates it; bounds were set here for any values at or beyond the usual limits of such assays
Conditions: source organism: Giardia lamblia ATCC 50803
pKd: −log10 of the molar value.

polymer.sequence	pKd
ARADGILRF	≤ 4.70
LMQDCAIKA	≤ 4.70
GMSLLEYGV	≤ 4.70

----------
Target: HLA-A*02:19
Assay: IEDB peptide-MHC binding, purified MHC/competitive/fluorescence; filed as Kd, often an IC50 or EC50 that approximates it; bounds were set here for any values at or beyond the usual limits of such assays
Settings: source organism: Salmonella enterica subsp. enterica serovar Typhi str. CT18
parameter: Kd

polymer.sequence	reported
KSKPRIHGY	≥ 20 µM

----------
Target: HLA-A*03:01
Test: IEDB peptide-MHC binding, purified MHC/competitive/radioactivity; filed as Kd, often an IC50 or EC50 that approximates it; bounds were set here for any values at or beyond the usual limits of such assays
Conditions: source organism: Mammarenavirus juninense

polymer.sequence	Kd
TGINENYAK	≥ 78 µM

----------
Quick list: Kd per entry.
Biological target: HLA-B*40:01
Assay: IEDB peptide-MHC binding, purified MHC/direct/fluorescence; filed as Kd, often an IC50 or EC50 that approximates it; bounds were set here for any values at or beyond the usual limits of such assays
Details: source organism: Escherichia coli O157:H7

polymer.sequence	Kd
VTRQIHNPR	≥ 20 µM
LLDPLYFEV	≥ 20 µM
WLSVIAFGK	≥ 20 µM

----------
Target: HLA-A*01:01
Assay: IEDB peptide-MHC binding, purified MHC/competitive/radioactivity; filed as Kd, often an IC50 or EC50 that approximates it; bounds were set here for any values at or beyond the usual limits of such assays
Conditions: source organism: Dengue virus 2 Jamaica/1409/1983
parameter: Kd (nM)

polymer.sequence	readout.unit	reported
EAEPPFGDSY	nM	1770
